Item-by-item account of IC50
# systemTested: human EGFR L858R (NIH/3T3 cells) (Homo sapiens, UniProt P00533, L858R)
# Sequence (P00533 25-1210 L858R): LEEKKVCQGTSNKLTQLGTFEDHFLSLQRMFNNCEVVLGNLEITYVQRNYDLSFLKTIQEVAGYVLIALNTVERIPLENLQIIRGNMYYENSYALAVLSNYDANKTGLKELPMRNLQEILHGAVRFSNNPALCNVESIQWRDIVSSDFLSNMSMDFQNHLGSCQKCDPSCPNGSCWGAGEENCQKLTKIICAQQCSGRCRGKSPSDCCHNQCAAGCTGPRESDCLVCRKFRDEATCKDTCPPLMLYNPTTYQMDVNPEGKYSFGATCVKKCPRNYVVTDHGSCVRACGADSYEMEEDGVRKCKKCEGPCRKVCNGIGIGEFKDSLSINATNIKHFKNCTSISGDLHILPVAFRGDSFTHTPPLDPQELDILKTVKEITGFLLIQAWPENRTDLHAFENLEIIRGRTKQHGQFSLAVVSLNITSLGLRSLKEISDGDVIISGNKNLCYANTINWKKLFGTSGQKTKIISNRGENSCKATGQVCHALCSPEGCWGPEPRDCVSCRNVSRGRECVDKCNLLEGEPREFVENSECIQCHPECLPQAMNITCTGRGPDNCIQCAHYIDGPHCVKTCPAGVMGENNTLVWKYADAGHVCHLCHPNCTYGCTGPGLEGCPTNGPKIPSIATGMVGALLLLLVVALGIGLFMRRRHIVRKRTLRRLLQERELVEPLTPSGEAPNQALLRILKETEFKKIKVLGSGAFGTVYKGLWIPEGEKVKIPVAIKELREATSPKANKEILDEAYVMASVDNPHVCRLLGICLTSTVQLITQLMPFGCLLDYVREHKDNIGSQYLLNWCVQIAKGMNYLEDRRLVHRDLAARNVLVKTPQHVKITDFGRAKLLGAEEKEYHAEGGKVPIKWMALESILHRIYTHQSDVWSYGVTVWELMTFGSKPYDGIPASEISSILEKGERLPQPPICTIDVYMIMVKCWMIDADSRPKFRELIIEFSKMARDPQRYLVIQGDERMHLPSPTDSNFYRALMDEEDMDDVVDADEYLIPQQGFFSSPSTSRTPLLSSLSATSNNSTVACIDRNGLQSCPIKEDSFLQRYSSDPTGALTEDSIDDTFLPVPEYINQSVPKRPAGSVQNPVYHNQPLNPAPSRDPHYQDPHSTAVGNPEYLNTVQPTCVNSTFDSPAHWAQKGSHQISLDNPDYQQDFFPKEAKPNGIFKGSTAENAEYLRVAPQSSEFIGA
# methodSummary: EGFR target modulation in engineered NIH/3T3 cell lines (phospho-EGFR Y1068 AlphaLISA), EGFR L858R
# Format: cell-based
# conditions: engineered NIH/3T3 cells, read-out: NIH3T3 IC50 (μM) EGFR (L858R)
measuredParameter: IC50 (µM)

* C=CC(=O)N1CCC[C@@H](n2c(NC(=O)c3cccc(C(F)(F)F)c3)nc3cccc(C)c32)C1 | 0.124
* C=CC(=O)N1CCCC[C@@H](n2c(NC(=O)c3cccc(C(F)(F)F)c3)nc3ccccc32)C1 | 0.008
* Cc1noc(-c2cccc3nc(NC(=O)c4ccccc4)n(C4COCCN(C(=O)/C=C/CN(C)C)C4)c23)n1 (stereo not shown) | 0.34
* Cc1cccc2nc(NC(=O)c3ccn4cncc4c3)n(C3CCCCN(C(=O)/C=C/CN(C)C)C3)c12 (stereo not shown) | 0.003

----------
# systemTested: H1975 (EGFR L858/T790M) (Homo sapiens, UniProt P00533, L858R/T790M)
# Sequence (P00533 25-1210 T790M/L858R): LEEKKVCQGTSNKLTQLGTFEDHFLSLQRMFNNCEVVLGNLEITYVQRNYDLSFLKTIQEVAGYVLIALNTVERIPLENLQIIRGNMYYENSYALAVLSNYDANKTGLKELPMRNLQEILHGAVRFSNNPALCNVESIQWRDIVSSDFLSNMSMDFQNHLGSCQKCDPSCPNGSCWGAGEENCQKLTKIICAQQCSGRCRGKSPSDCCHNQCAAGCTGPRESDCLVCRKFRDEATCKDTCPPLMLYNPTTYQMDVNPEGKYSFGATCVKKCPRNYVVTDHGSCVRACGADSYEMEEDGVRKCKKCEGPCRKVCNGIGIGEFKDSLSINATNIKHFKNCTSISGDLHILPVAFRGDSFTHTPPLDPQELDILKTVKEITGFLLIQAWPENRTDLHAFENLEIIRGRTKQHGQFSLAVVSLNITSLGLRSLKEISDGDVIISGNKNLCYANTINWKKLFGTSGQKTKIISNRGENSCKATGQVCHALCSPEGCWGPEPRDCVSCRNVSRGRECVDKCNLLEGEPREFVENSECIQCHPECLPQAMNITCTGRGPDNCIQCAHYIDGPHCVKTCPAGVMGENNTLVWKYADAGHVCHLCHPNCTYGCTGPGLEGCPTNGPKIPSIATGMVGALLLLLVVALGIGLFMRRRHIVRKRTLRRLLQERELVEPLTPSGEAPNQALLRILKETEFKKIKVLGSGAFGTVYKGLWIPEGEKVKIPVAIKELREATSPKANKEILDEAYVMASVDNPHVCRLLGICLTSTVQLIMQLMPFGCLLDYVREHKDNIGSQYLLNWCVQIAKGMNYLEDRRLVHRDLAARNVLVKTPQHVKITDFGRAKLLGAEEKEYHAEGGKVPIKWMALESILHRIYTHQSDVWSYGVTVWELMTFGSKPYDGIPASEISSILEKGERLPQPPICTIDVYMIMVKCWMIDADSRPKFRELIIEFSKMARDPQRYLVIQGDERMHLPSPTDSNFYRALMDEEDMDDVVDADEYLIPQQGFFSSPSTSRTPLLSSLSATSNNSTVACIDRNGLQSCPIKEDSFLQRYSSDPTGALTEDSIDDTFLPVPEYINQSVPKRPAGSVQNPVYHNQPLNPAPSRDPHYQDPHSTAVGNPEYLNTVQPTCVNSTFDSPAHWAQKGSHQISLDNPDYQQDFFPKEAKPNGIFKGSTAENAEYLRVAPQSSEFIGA
# methodSummary: EGFR target modulation in H1975 cell line (phospho-EGFR Y1173 ELISA)
# Procedure: EGFR Target Modulation in H1975, H3255 and HCC827 Cell Lines Tissue Culture. Cells were maintained in 10% FBS/RPMI supplemented with 100 μg/ml Penicillin/Streptomycin (Hyclone #SH30236.01). […] The cells were allowed to incubate overnight in a 37° C., 5% CO2 humidified tissue culture incubator. […] Signal was read on EnVision plate reader using built-in UltraLUM setting. […] With these parameters, the IC50's for each compound in each cell line was calculated using non-linear curve fitting analysis.
# label = Condition met if IC50 < 7 nM else Condition not met

• Cc1cc(C(=O)Nc2nc3cccc(Cl)c3n2[C@@H]2CCCCN(C(=O)/C=C/CN(C)C)C2)cc(P(C)(C)=O)n1 = Condition not met
• Cc1cccc2nc(NC(=O)c3ccc(F)cc3F)n(C3CCCCN(C(=O)/C=C/CN(C)C)C3)c12 (centres unmarked) = Condition not met
• C=CC(=O)N1CCCC[C@@H](n2c(NC(=O)c3cc(C)nc(C)c3)nc3cc(CN4CC[C@H](F)C4)cc(C)c32)C1 = Condition met
• C=CC(=O)N1CCC[C@@H](n2c(NC(=O)c3cccc(C(F)(F)F)c3)nc3cc(CN4CCOCC4)ccc32)C1 = Condition not met
• CNC/C=C/C(=O)N1CCCC[C@@H](n2c(NC(=O)c3cc(C)nc(C)c3)nc3cccc(Cl)c32)C1 = Condition met
• Cc1cccc2nc(NC(=O)c3ccnc(C(F)(F)F)c3)n([C@@H]3CCCCN(C(=O)/C=C/CN(C)C)C3)c12 = Condition met
• Cc1cc(C(=O)Nc2nc3cccc(C)c3n2[C@@H]2CCCCN(C(=O)/C=C/CN(C)C)C2)cc(Cl)n1 = Condition met
• Cc1cccc2nc(NC(=O)c3ccc(F)cc3)n(C3CCCCN(C(=O)/C=C/CN(C)C)C3)c12 (centres unmarked) = Condition met
• Cc1cc(C(=O)Nc2nc3cccc(Cl)c3n2[C@@H]2CCCCN(C(=O)/C=C/CNC3(C)CC3)C2)ccn1 = Condition met
• COc1cc(C(=O)Nc2nc3cccc(C)c3n2C2CCCCN(C(=O)/C=C/CN(C)C)C2)ccn1 (centres unmarked) = Condition not met
• C=CC(=O)N1CCC[C@@H](n2c(NC(=O)c3cccc(C(F)(F)F)c3)nc3cc(C(N)=O)ccc32)C1 = Condition not met
• Cc1cc(C(=O)Nc2nc3cccc(Cl)c3n2[C@@H]2CCCCN(C(=O)/C=C/CN(C3CC3)C3CC3)C2)ccn1 = Condition not met
